pIC50 reference
Molecular target: human TLR7 (Homo sapiens (Human))
Sequence (Q9NYK1 27-1049): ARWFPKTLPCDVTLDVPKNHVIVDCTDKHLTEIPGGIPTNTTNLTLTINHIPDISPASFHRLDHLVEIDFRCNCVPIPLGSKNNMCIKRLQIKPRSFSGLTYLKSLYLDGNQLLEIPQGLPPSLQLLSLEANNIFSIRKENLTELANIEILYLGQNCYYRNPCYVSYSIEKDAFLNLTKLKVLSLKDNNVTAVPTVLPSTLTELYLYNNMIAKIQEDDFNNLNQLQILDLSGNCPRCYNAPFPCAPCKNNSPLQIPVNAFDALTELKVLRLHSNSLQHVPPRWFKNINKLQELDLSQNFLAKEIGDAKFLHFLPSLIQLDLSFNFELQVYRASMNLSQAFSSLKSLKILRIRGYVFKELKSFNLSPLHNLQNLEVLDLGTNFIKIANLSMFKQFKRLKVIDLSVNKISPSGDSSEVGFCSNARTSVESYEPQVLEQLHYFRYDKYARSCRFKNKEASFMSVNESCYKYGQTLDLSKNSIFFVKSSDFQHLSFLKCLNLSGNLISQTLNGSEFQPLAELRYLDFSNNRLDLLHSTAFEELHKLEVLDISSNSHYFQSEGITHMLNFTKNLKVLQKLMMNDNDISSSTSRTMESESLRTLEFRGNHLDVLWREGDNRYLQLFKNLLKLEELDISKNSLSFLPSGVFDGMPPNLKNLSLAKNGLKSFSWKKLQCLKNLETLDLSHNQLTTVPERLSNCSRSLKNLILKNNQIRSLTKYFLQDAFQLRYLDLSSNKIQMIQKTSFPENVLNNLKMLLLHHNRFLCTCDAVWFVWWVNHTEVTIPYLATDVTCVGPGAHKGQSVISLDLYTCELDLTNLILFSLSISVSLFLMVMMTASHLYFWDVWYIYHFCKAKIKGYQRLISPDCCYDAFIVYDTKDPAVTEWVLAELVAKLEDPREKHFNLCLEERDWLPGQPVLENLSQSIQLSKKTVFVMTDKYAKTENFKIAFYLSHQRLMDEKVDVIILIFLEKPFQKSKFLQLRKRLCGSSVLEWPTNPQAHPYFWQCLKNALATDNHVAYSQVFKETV
Assay: TLR7 inhibition reporter assay (HEK-Blue SEAP)
Type: cell-based
Settings: HEK-Blue human TLR7 cells, gardiquimod 7.5 μM
Formally, pIC50 is defined as -log10 of the concentration c, with c in mol/L.

Q) Item Cc1c(-c2[nH]c3ccc(N4CCN(CCCS(C)(=O)=O)C[C@@H]4C)nc3c2C(C)C)cn2ncnc2c1C [Example 805] : provide pIC50
A) 8.68

Q) Item Cc1c(-c2[nH]c3ccc(N4C[C@H](C)NC[C@@H]4C)nc3c2C(C)C)cn2ncnc2c1C [Example 991] : provide pIC50
A) 9.57

Q) Item CNCC(=O)N1CCN(c2ccc3[nH]c(-c4cn5ncnc5c(C)c4C)c(C(C)C)c3n2)CC1 [Example 830] : provide pIC50
A) 9.21

Value source: patent US10544143B2
